Reference for the values: a melting point compilation (Tetko et al.)

# reported melting point; entries follow
property-name: melting point

> print(dat)
                                    compound  property.name  reported.measurement
 1  O=CN1CCN(C(=NS(=O)(=O)c2ccccc2)C(F)(F)F)CC1  melting point         114 to 116 °C
 2        COC(=O)C(=O)CC(=O)c1ccc(OC)c(OC)c1  melting point         141 to 150 °C
 3        O=C(O)CN1C(=O)Cn2c(cc3ccccc32)C1=O  melting point         331 to 333 °C
 4                    Cc1nccn1-c1ccc(C#N)cn1  melting point         213 to 215 °C
 5                        O=C(CCl)Nc1ccccc1I  melting point           38 to 40 °C
 6          COC(=O)c1cc(S(=O)(=O)Cl)cc(F)c1F  melting point           56 to 58 °C
 7                   CC(C)N1CCC(N2CCNCC2)CC1  melting point           46 to 48 °C
 8  CCOC(=O)c1c(NC(=O)C(C)Cl)sc2c1CCC(C)C2 (stereo not drawn)  melting point           90 to 93 °C
 9                     COc1ccc(C=O)cc1OC(F)F  melting point           34 to 38 °C
10                  CN(C)C(=S)Oc1cccc(C=O)c1  melting point           65 to 67 °C
11  NC1CCN(c2cccc(Cl)c2)C1=O (stereo not drawn)  melting point          99 to 101 °C
12                      ClCc1nc2cc(Cl)ccc2s1  melting point          99 to 101 °C
13            C=CS(=O)(=O)c1ccc(C(C)(C)C)cc1  melting point           91 to 93 °C
14                   Cc1cccc(S(N)(=O)=O)c1Cl  melting point         169 to 171 °C
15                  O=C1COc2cc(Br)c(Cl)cc2N1  melting point         281 to 283 °C
16                       CCc1sc(C(=O)O)cc1Br  melting point         155 to 157 °C
17                     O=Cc1cc(Cl)cc2cccnc12  melting point         155 to 157 °C
18              COc1cccc(C2CC(=O)CC(=O)C2)c1  melting point         131 to 133 °C
19  O=C(NC(Cc1ccccc1)C(=O)O)c1ccc(Cl)cc1 (stereo not drawn)  melting point         195 to 197 °C
20                 Cc1cc(NC(=O)CN2CCNCC2)no1  melting point         114 to 116 °C
21                             N#Cc1cc[nH]c1  melting point           55 to 57 °C
22              Cc1nc2c(cnn2C(C)C)c(=O)[nH]1  melting point         174 to 176 °C
23                  Nc1ccc(NC(=O)c2cccs2)cc1  melting point         166 to 168 °C
24              CC(=O)c1ccc2c(c1)Nc1ccccc1S2  melting point         180 to 185 °C
25         CC(=O)N(c1ccc(Cl)cc1)c1nc(CCl)cs1  melting point         145 to 147 °C
26                           CC(C)c1nc(N)no1  melting point           39 to 41 °C
27                     CN(C)C(=O)c1cn[nH]c1N  melting point         167 to 169 °C
28             CCn1nc(C)c(C(=O)O)c1C(F)(F)Cl  melting point         111 to 113 °C

* * *

property-name: melting point

> print(dat)
                                    compound  property.name  reported.measurement
 1                CC(C)c1nn(-c2ccccc2)cc1C=O  melting point           59 to 61 °C
 2     O=[N+]([O-])c1ccc(Oc2ccccc2Br)c(Cl)c1  melting point           86 to 88 °C
 3              O=C(O)c1cc2c([nH]c1=O)CCCCC2  melting point         247 to 249 °C
 4                Cn1nc(CC(=O)O)c2ccccc2c1=O  melting point         189 to 191 °C
 5           O=C(COc1ccccc1C(=O)O)Nc1ccccc1F  melting point         197 to 199 °C
 6                          N#CCCCOc1cccnc1N  melting point           88 to 90 °C
 7                   O=C(Nc1cocn1)OCC(F)(F)F  melting point         131 to 133 °C
 8  CN(c1ccc(F)cc1)S(=O)(=O)c1ccc(Cl)c(C(=O)O)c1  melting point         174 to 176 °C
 9                     NC(Cc1nc2ccccc2s1)=NO  melting point         159 to 161 °C
10                    Cn1nc(Br)c2c(Cl)ncnc21  melting point         115 to 117 °C
11                  O=C(O)C1(c2cccc(F)c2)CC1  melting point         115 to 117 °C
12               CC1(NC(=O)c2ccnc(F)c2)CCCC1  melting point           78 to 80 °C
13                 O=C(O)CCNS(=O)(=O)c1cccs1  melting point         143 to 145 °C
14              O=C(O)c1ccccc1-c1nc2ccccc2s1  melting point         190 to 192 °C
15                     NS(=O)(=O)c1cccc(I)c1  melting point         148 to 150 °C
16  CS(=O)(=O)c1cccc(C(N)c2ccccc2)c1 (stereo unspecified)  melting point           48 to 50 °C
17              CN(C)c1ccc(N2C(=O)CSC2=S)cc1  melting point         138 to 140 °C
18  CC1CC1C(=O)Nc1ccc(F)cc1C(=O)O (stereo unspecified)  melting point         173 to 175 °C
19  CC(C)(C)OC(=O)NN1CC(C(=O)O)CC1=O (stereo unspecified)  melting point         169 to 171 °C
20            Nc1ccc(CNC(=O)c2ccc(Br)cc2)cc1  melting point         173 to 175 °C
21               COCCc1noc(-c2cc(Cl)ccc2N)n1  melting point           93 to 95 °C
22        CCOc1cc(C=CC(=O)O)ccc1OCCOc1ccccc1  melting point         187 to 189 °C
23          O=C(O)c1cnc(Cl)c([N+](=O)[O-])c1  melting point         126 to 128 °C
24         Cc1cc(C(C)(C)C)cc(C)c1CCNC(=O)CCl  melting point         114 to 116 °C
25  OC(CNC1CC1)c1ccc(F)cc1 (stereo unspecified)  melting point           84 to 86 °C
26                        Cc1cc(C(=O)O)sc1Br  melting point         171 to 173 °C
27            O=C(O)CN1C(=O)c2ccccc2S1(=O)=O  melting point         218 to 220 °C
28                   Cc1cc(C)cc(-n2nnnc2S)c1  melting point         164 to 166 °C
29             O=C(O)c1cccc(Oc2ccc(Cl)cc2)n1  melting point         115 to 117 °C
30                         Cc1nccc(C(=O)O)n1  melting point         206 to 208 °C
31             CCOc1ccc(S(N)(=O)=O)c2ccccc12  melting point         168 to 170 °C
32                     CC(=O)NC(C)(C)C(N)=NO  melting point         163 to 165 °C
33                      CN1N=C(C(=O)O)CCC1=O  melting point         156 to 158 °C
34        Cc1ccc(S(=O)(=O)N2CCCCC2)cc1C(=O)O  melting point         197 to 199 °C
35              O=C(O)c1cc2c(s1)-c1ccccc1OC2  melting point         236 to 238 °C
36            CC(=O)Oc1ccc(C(=O)O)cc1OC(C)=O  melting point         159 to 161 °C
37          O=C(O)C1CCN(C=CC(=O)C(F)(F)F)CC1  melting point         135 to 137 °C
38                    Nc1sc2c(c1C(=O)O)CCSC2  melting point         169 to 171 °C
39                   Cc1n[nH]c(-c2ccccc2C)n1  melting point         141 to 143 °C
40                   CCOC(=O)c1c(N)sc(C)c1CC  melting point           45 to 47 °C
41                CC(C)CCC(=O)NCCCS(N)(=O)=O  melting point           90 to 92 °C
42                   O=C(O)Cc1ccc(OC(F)F)cc1  melting point           78 to 80 °C
43                   CC(C)(C)n1[nH]c(=O)cc1N  melting point         223 to 225 °C
44                      O=C(O)CNc1cccc(Cl)c1  melting point         174 to 176 °C
45                          Clc1cnc2ccccc2n1  melting point           47 to 50 °C
46                    CSc1nc(CCl)cc(=O)[nH]1  melting point         176 to 178 °C
47    CC(=O)c1cc(Cl)cc(CN2CCN(C(C)=O)CC2)c1O  melting point         136 to 138 °C
48                   O=C(O)CNC(=O)c1ccccc1Br  melting point         138 to 140 °C
49                   Cc1ccccc1-c1cc(N)n(C)n1  melting point           97 to 99 °C
50                              Clc1cn[nH]c1  melting point           65 to 67 °C
51                COc1cc(Cl)c(C(=O)CBr)cc1OC  melting point           93 to 95 °C
52                    N#Cc1ccc(C=CC(=O)O)cc1  melting point         250 to 252 °C
53               Cc1ccc(-n2cc(C(=O)O)nn2)cc1  melting point         160 to 162 °C
54                      O=C(O)CN1CC(=O)NC1=O  melting point         139 to 141 °C
55                  NC(=O)Nc1ccccc1Oc1ccccc1  melting point         182 to 184 °C
56  NC(=O)C(CC(=O)O)NC(=O)OCc1ccccc1 (stereo unspecified)  melting point         169 to 171 °C
